# EXPERIMENTAL_SYSTEM: T1, TPR domain (residues 166–330) of human AIP (aryl hydrocarbon receptor interacting protein), wild type (human, UniProt O00170 166-330)
# T1 construct: Residues Asp 172 to Arg 325 were visible in the TOMM20 peptide structure; also called AIP TPR-domain; WT
# T1 sequence (looked up): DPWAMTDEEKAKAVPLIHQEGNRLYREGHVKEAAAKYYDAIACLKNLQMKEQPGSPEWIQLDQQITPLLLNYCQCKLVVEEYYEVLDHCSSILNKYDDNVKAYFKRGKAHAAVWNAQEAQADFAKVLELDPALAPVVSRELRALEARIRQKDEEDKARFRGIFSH
# TEST: ITC; twenty 1.9 µL aliquots of peptide (350 to 600 µM) injected into 30 µM AIP TPR-domain; 20 mM Tris pH 7.5, 5 mM NaCl, 30°C
# EXPERIMENTAL_PARAMETERS: both partners purified
Given measured stoichiometry N, output Yes if it is greater than or equal to 0.9 and No if not.

BINDER	ASSIGNED_CLASS
GSGPTIEEVD (C-terminus of human HSP70; also called HSP70 peptide) [GSGPTIEEVD peptide (human HSP70 C-terminus)]	No
DDTSRMEEVD (extreme C-terminus of human HSP90α) [DDTSRMEEVD peptide (human HSP90α C-terminus)]	Yes
MEEVD (extreme C-terminal five residues of HSP90; also called MEEVD (HSP90)) [MEEVD peptide (HSP90)]	Yes

Shift focus to the following entry.
Does AQSLAEDDVE (extreme C-terminus of human TOMM20; Only AEDDVE was visible in the crystal structure) [AQSLAEDDVE peptide (human TOMM20 C-terminus)] have a reported stoichiometry N of at least 0.9?
No
